Biological target: Histone deacetylase 1 (Homo sapiens, UniProt Q13547)
Sequence (Q13547 whole entry): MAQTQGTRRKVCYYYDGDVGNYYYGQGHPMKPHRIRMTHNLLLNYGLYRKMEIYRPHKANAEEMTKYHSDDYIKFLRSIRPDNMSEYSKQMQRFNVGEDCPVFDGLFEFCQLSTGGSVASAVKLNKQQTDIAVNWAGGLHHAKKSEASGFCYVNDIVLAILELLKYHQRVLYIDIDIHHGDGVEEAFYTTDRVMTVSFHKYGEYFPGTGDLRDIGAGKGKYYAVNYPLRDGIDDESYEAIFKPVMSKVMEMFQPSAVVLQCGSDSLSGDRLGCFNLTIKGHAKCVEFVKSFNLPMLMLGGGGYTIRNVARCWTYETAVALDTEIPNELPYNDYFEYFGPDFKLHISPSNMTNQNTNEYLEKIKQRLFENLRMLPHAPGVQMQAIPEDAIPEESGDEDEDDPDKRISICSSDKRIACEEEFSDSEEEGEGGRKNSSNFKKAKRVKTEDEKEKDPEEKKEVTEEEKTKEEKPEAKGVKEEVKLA
Assay: Inhibition of recombinant human HDAC1 using ZMAL (Z-(Ac)Lys-AMC as substrate incubated for 20 mins at 1 uM and measured by homogenous fluorescence assay relative to control
ENDPOINT: inhibition (%)

Guide cases for inhibition, answers given:
INSERT INTO measurements (structure_as_smiles, units_label, measured_value) VALUES
  ('Cn1cc(CN2CCC(/C=C/C(=O)NO)CC2)c2ccccc21', '%', 12),
  ('O=C(/C=C/C1CCN(CCc2c[nH]c3ccccc23)CC1)NO', '%', 7);

[P] O=C(NO)c1ccc(CNCc2cccs2)cc1
[Q] O=C(/C=C/C1CCN(Cc2csc3ccccc23)CC1)NO
Lookup: Hi there! Just curious which has the higher inhibition between P and Q . Your answer should be the label attached to the chosen record.
Found: Q

[1] O=C(/C=C/C1CCN(Cc2cccc(Cl)c2)CC1)NO
[2] O=C(/C=C/C1CCN(Cc2ccccc2)CC1)NO
[3] CN1CCN(Cc2ccc(C(=O)NO)cc2)CC1
Lookup: Order the items by recorded inhibition; the first position goes to the largest value. Write out the labels following the order that was asked for.
Found: 1, 2, 3
(1: 24%, 2: 12%, 3: 6%)
